experiment.description: PK protocol (intravenous and oral administration)
Format: in vivo, male Sprague Dawley rats
measurement.parameters: male, Sprague Dawley, plasma; rat, intravenous, dose 1 mg/kg
Please respond with reported half-life for every item in the list.
One number for each entry, in h.

Reference set (4 entries):
COC1(c2cc(S(=O)(=O)NC(=O)Nc3c4c(cc5c3CCC5)CCC4)nn2C2CC2)COC1 : 1.1
O=C(Nc1c2c(cc3c1CCC3)CCC2)NS(=O)(=O)c1ccn(C2(CO)CCC2)n1 : 3.5
C[C@@H](O)Cn1ccc(S(=O)(=O)NC(=O)Nc2c3c(cc4c2CCC4)CCC3)n1 : 3.8
C[C@H](O)Cn1ccc(S(=O)(=O)NC(=O)Nc2c3c(cc4c2CCC4)CCC3)n1 : 2.9

Kindly consider the entry below.
Query string: Give recorded half-life. CC(C)(O)Cn1ccc(S(=O)(=O)NC(=O)Nc2c3c(cc4c2CCC4)CCC3)n1
Result string: 2.9

* * *

experiment.description: PK protocol (intravenous and oral administration)
Format: in vivo, male Sprague Dawley rats
measurement.parameters: male, Sprague Dawley, plasma; rat, intravenous, dose 1.74 mg/kg
observed.property: AUC (ng·h/mL)
Numbers only, in ng·h/mL.

Query string: Give recorded AUC. CC(O)C(C)n1ccc(S(=O)(=O)NC(=O)Nc2c3c(cc4c2CCC4)CCC3)n1 (racemic)
Result string: 8060

* * *

experiment.description: PK protocol (intravenous and oral administration)
Assay type: in vivo, male Sprague Dawley rats
measurement.parameters: male, Sprague Dawley, plasma; rat, intravenous, dose 2.99 mg/kg
observed.property: clearance
Form field: result (number plus unit)

Query string: Give recorded clearance. CCn1nc(S(=O)(=O)NC(=O)Nc2c3c(cc4c2CCC4)CCC3)cc1C1(OC)COC1
Result string: 21.6 mL/min/kg

* * *

experiment.description: PK protocol (intravenous and oral administration)
Type: in vivo, male Sprague Dawley rats
measurement.parameters: male, Sprague Dawley, plasma; rat, intravenous, dose 1 mg/kg
Please respond with reported clearance for every item in the list.
One number for each entry, in mL/min/kg.

Reference set (5 entries):
CC(C)(O)c1coc(S(=O)(=O)NC(=O)Nc2c3c(cc4c2CCC4)CCC3)c1 [MCC950, reference compound] : 27.8
O=C(Nc1c2c(cc3c1CCC3)CCC2)NS(=O)(=O)c1ccn(C2CCOC2)n1 (centres unmarked) : 1.9
COC1(c2cc(S(=O)(=O)NC(=O)Nc3c4c(cc5c3CCC5)CCC4)nn2C)COC1 : 13.3
CC(C)(O)Cn1ccc(S(=O)(=O)NC(=O)Nc2c3c(cc4c2CCC4)CCC3)n1 : 3.9
CC(O)C(C)n1ccc(S(=O)(=O)NC(=O)Nc2c3c(cc4c2CCC4)CCC3)n1 (racemic) : 0.8

Provide the reported clearance of each entry below, same order.
1. COC1(c2cc(S(=O)(=O)NC(=O)Nc3c4c(cc5c3CCC5)CCC4)nn2C2CC2)COC1
2. COCCn1ccc(S(=O)(=O)NC(=O)Nc2c3c(cc4c2CCC4)CCC3)n1
3. C[C@H](CO)n1ccc(S(=O)(=O)NC(=O)Nc2c3c(cc4c2CCC4)CCC3)n1

Result string:
1. 4.6
2. 16.2
3. 0.4

* * *

Please respond with reported IC50 for every item in the list.
assay.target: NLRP3 (Homo sapiens)
experiment.description: THP-1 cells pyroptosis assay
Assay type: cell-based
Parameters: Seed THP-1 cells (25,000 cells/well) containing 1.0 μg/ml LPS; host or cells: THP-1 cells, LPS-primed, nigericin-stimulated
measurement.parameters: LPS 1 μg/ml, nigericin 5 μM, resazurin read-out
Procedure: THP-1 cells (ATCC #TIB-202) were grown in RPMI containing L-glutamine (Gibco #11835) supplemented with 1 mM sodium pyruvate (Sigma #S8636) and penicillin (100 units/ml)/streptomycin (0.1 mg/ml) (Sigma #P4333) in 10% Fetal Bovine Serum (FBS) (Sigma #F0804). […] The cells were then counted and viability (>90%) checked by Trypan blue (Sigma #T8154). […] The following method step-by-step assay was followed for compound screening. • 1. […] Plates were read in an Envision reader at Ex 560 nm and Em 590 nm • 9. […]

Reference set (3 entries):
CC(C)c1cccc(C(C)C)c1NC(=O)NS(=O)(=O)c1cc(C(=O)N2CCOCC2)n(C)n1 : 640 to 2560 nM
COc1cc(-c2ccc3c(c2NC(=O)NS(=O)(=O)c2ccn(C(C)(C)CN4CC(OC)C4)n2)CCC3)ccn1 : < 40 nM
CC[C@@H](O)Cn1ccc(S(=O)(=O)NC(=O)Nc2c3c(cc4c2CCC4)CCC3)n1 : 160 to 640 nM

Kindly consider the entry below.
Query string: Give IC50 for CC(O)C(C)n1ccc(S(=O)(=O)NC(=O)Nc2c3c(cc4c2CCC4)CCC3)n1 (racemic) [Example 23] tested on NLRP3 (Homo sapiens).
Result string: 40 to 160 nM

* * *

experiment.description: PK protocol (intravenous and oral administration)
Format: in vivo, male Sprague Dawley rats
measurement.parameters: male, Sprague Dawley, plasma; rat, intravenous, dose 1 mg/kg
observed.property: half-life

Reference set (3 entries):
O=C(Nc1c2c(cc3c1CCC3)CCC2)NS(=O)(=O)c1ccn(CC2CCCO2)n1 (stereo not shown) : 6.7 h
COC1(c2cc(S(=O)(=O)NC(=O)Nc3c4c(cc5c3CCC5)CCC4)nn2C)COC1 : 11.5 h
COC1(c2cc(S(=O)(=O)NC(=O)Nc3c4c(cc5c3CCC5)CCC4)nn2C)CCOC1 (stereo not shown) : 2.9 h

Kindly consider the entry below.
Query string: Give recorded half-life. COCCN(C)C(=O)c1cc(S(=O)(=O)NC(=O)Nc2c3c(cc4c2CCC4)CCC3)nn1C
Result string: 2.9 h

* * *

experiment.description: PK protocol (intravenous and oral administration)
Format: in vivo, male Sprague Dawley rats
measurement.parameters: male, Sprague Dawley, plasma; rat, intravenous, dose 2.41 mg/kg
observed.property: half-life (min)
Answers are plain numbers, in min.

Query string: Give recorded half-life. CN(CCO)C(=O)c1cc(S(=O)(=O)NC(=O)Nc2c3c(cc4c2CCC4)CCC3)nn1C
Result string: 18

* * *

Please respond with reported IC50 for every item in the list.
assay.target: NLRP3 (Homo sapiens, UniProt Q96P20)
Sequence (Q96P20 whole entry): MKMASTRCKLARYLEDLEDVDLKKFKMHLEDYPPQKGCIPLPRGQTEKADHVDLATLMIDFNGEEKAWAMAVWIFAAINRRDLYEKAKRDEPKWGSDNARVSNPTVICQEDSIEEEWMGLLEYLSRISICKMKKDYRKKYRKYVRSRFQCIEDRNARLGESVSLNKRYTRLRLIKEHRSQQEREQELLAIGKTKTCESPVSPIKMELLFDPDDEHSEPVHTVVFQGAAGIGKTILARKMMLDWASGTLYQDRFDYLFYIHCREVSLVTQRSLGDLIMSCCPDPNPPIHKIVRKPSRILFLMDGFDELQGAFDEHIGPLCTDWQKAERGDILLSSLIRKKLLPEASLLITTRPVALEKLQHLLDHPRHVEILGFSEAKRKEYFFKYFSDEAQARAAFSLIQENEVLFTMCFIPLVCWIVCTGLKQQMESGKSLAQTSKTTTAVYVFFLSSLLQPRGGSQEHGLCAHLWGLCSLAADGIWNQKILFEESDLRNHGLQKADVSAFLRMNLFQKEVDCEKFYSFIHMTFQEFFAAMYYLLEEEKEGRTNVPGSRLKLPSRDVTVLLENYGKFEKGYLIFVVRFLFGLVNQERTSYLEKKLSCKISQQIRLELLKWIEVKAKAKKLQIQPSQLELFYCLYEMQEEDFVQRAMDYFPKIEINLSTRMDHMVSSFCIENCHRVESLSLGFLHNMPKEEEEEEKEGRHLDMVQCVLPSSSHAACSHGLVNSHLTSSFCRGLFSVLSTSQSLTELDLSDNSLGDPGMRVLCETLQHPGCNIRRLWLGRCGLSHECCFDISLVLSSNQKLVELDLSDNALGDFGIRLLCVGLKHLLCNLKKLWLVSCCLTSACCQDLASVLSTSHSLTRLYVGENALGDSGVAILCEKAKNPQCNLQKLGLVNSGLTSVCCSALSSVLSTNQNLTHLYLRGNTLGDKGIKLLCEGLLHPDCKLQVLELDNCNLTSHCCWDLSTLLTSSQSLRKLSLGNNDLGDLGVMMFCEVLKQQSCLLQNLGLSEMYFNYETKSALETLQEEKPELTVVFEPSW
experiment.description: Human whole blood IL1β release assay
Format: cell-based
Design: Plate out 80 μl of whole blood containing 1 μg/ml of LPS; from tissue; host or cells: human whole blood from healthy donors, LPS-primed, nigericin-stimulated
measurement.parameters: LPS 1 μg/ml, nigericin 10 μM, IL-1β AlphaLisa, read-out: HWB IC50
Where a name gives a salt, the structure may show the parent alone.

COC1CN(CC(C)(C)n2ccc(S(=O)(=O)NC(=O)Nc3c4c(cc5c3CCC5)CCC4)n2)C1 : 800 to 1600 nM
O=C(Nc1c2c(cc3c1CCC3)CCC2)NS(=O)(=O)c1ccn(CC2CCCO2)n1 (single isomer, unassigned) [Example 4] : 3200 to 10000 nM
CC1(Cn2ccc(S(=O)(=O)NC(=O)Nc3c4c(cc5c3CCC5)CCC4)n2)COC1 [Example 9, ammonium salt] : 3200 to 10000 nM
Cn1nc(S(=O)(=O)NC(=O)Nc2c3c(cc4c2CCC4)CCC3)cc1C1(O)COC1 : < 400 nM
C[C@@H](CO)n1ccc(S(=O)(=O)NC(=O)Nc2c3c(cc4c2CCC4)CCC3)n1 : 800 to 1600 nM
O=C(Nc1c2c(cc3c1CCC3)CCC2)NS(=O)(=O)c1ccn(C2CCOC2)n1 (centres unmarked) : 800 to 1600 nM
O=C(Nc1c2c(cc3c1CCC3)CCC2)NS(=O)(=O)c1ccn(C2CCCC2O)n1 (racemic) : 400 to 800 nM

Query string: Give recorded IC50. CC(C)(O)Cn1ccc(S(=O)(=O)NC(=O)Nc2c3c(cc4c2CCC4)CCC3)n1
Result string: 400 to 800 nM

* * *

Please respond with reported IC50 for every item in the list.
assay.target: NLRP3 (Homo sapiens, UniProt Q96P20)
experiment.description: THP-1 cells pyroptosis assay
Assay type: cell-based
Design: Seed THP-1 cells (25,000 cells/well) containing 1.0 μg/ml LPS; host or cells: THP-1 cells, LPS-primed, nigericin-stimulated
measurement.parameters: LPS 1 μg/ml, nigericin 5 μM, resazurin read-out

Reference set (4 entries):
Cn1nc(S(=O)(=O)NC(=O)Nc2c3c(cc4c2CCC4)CCC3)cc1C(=O)N1CCOCC1 : 640 to 2560 nM
COCCN(C)C(=O)c1cc(S(=O)(=O)NC(=O)Nc2c3c(cc4c2CCC4)CCC3)nn1C : 40 to 160 nM
C[C@@H](O)Cn1cc(S(=O)(=O)NC(=O)Nc2c3c(cc4c2CCC4)CCC3)nn1 : 160 to 640 nM
COc1cc(-c2ccc3c(c2NC(=O)NS(=O)(=O)c2ccn(CC(C)(C)OC)n2)CCC3)ccn1 : < 40 nM

Provide the reported IC50 of each entry below, same order.
1. CC(C)c1cc(F)cc(C(C)C)c1NC(=O)NS(=O)(=O)c1ccn(C[C@@H](C)O)n1
2. O=C(Nc1c2c(cc3c1CCC3)CCC2)NS(=O)(=O)c1ccn(C2CC(O)C2)n1 (stereo not shown)
3. O=C(Nc1c2c(cc3c1CCC3)CCC2)NS(=O)(=O)c1ccn(CCO)n1

Result string:
1. 640 to 2560 nM
2. 160 to 640 nM
3. 40 to 160 nM

The origin of these recorded values is patent US12012392B2.
